# System: BDF1 mice, P388 leukemia ip, median survival T/C
# ASSAY_INFO: NCI In Vivo Anticancer Drug Screen. Data for tumor model P388 Leukemia (intraperitoneal) in B6D2F1 (BDF1) mice
# CONDITION_NOTES: endpoint: median survival time; dose: 50.0 mg/kg/injection; schedule: Q01DX009 (ip); vehicle: saline with Tween-80
Toxic doses and inconclusive results are not listed. The calls were made as follows: active = survival T/C of 150% or more; inactive = T/C below 125% in these data.
Labels: active, inactive

>  <MOLECULE>
Cc1ncnc2c1CCC2

>  <CLASS_NAME>
inactive

$$$$
>  <MOLECULE>
COC(=O)CCC(=O)CCC(C)C

>  <CLASS_NAME>
inactive

$$$$
>  <MOLECULE>
COc1ccc(/C=C(/C#N)c2ccccc2)cc1

>  <CLASS_NAME>
inactive

$$$$
>  <MOLECULE>
c1cc2c3c(c1)/C(=N\N=C1/CCN4CCCc5cccc1c54)CCN3CCC2

>  <CLASS_NAME>
inactive

$$$$
>  <MOLECULE>
CC1CSCC(C)O1 (stereo not drawn)

>  <CLASS_NAME>
inactive

$$$$
>  <MOLECULE>
CC1=NN(CCO)C(=O)C1

>  <CLASS_NAME>
inactive

$$$$
>  <MOLECULE>
CCOC(=O)c1ccc(NS(=O)c2ccccc2)cc1 (stereo not drawn)

>  <CLASS_NAME>
inactive

$$$$
>  <MOLECULE>
O=C1c2c(Cl)cccc2C(c2ccccc2)c2cccc(Cl)c21

>  <CLASS_NAME>
inactive

$$$$
>  <MOLECULE>
CC1(C)N=C(N)N=C(N)N1c1cccc(CC(=O)Nc2ccc(S(=O)(=O)F)cc2)c1

>  <CLASS_NAME>
active

$$$$
>  <MOLECULE>
CC1=NC2=NC(CCCC(=O)Nc3ccc(Cl)cc3)=NC3=CC=CC(=N1)N32

>  <CLASS_NAME>
inactive

$$$$
>  <MOLECULE>
O=C(CO)c1ccc([N+](=O)[O-])cc1

>  <CLASS_NAME>
inactive

$$$$
>  <MOLECULE>
CN(C)P(=O)(Oc1ccccc1)N(C)C

>  <CLASS_NAME>
inactive

$$$$
>  <MOLECULE>
c1c(NC2=NCCO2)cc2c3c1CCCN3CCC2

>  <CLASS_NAME>
inactive

$$$$

Source of measurements: PubChem BioAssay AID328
